Cited source: patent US20250368626A1

Assay: Kinetic and thermodynamic solubility of Compound A and the glutaric acid co-crystal in FaSSGF, FaSSIF and water at 37° C. (HPLC)
Type: physicochemical
Conditions: thermodynamic from solid; Water, 37° C., Kinetic-1 hour
Outcome measure: solubility at 1 h

molecule="CC(C)c1cc(Oc2c(Cl)cc(-n3nc(C#N)c(=O)[nH]c3=O)cc2Cl)n[nH]c1=O [Form A]" outcome_measure="solubility at 1 h" result="0.0259 mg/mL"

* * *

Test: Kinetic and thermodynamic solubility of Compound A and the glutaric acid co-crystal in FaSSGF, FaSSIF and water at 37° C. (HPLC)
Assay type: physicochemical
Details: pH 6.44, thermodynamic from solid; FaSSIF, 37° C., Equilibrium-24 hours
Outcome measure: solubility at 24 h (µg/mL)

compound="CC(C)c1cc(Oc2c(Cl)cc(-n3nc(C#N)c(=O)[nH]c3=O)cc2Cl)n[nH]c1=O [Form A]" numeric_value=552

* * *

# reported Solubility; entries follow
Experiment: Solubility of salts of Compound A in FaSSGF, FaSSIF and water at 37° C.
Details: FaSSGF, 37° C.
Outcome measure: Solubility (µg/mL)

molecule="CC(C)c1cc(Oc2c(Cl)cc(-n3nc(C#N)c(=O)[nH]c3=O)cc2Cl)n[nH]c1=O [Free form Anhydrous]" outcome_measure=Solubility numeric_value=100
molecule=CC(C)c1cc(Oc2c(Cl)cc(-n3nc(C#N)c(=O)[n-]c3=O)cc2Cl)n[nH]c1=O.[Na+] outcome_measure=Solubility numeric_value=0.8
molecule=CC(C)c1cc(Oc2c(Cl)cc(-n3nc(C#N)c(=O)[n-]c3=O)cc2Cl)n[nH]c1=O.[K+] outcome_measure=Solubility numeric_value=1.2
molecule=CC(C)c1cc(Oc2c(Cl)cc(-n3nc(C#N)c(=O)[n-]c3=O)cc2Cl)n[nH]c1=O.CC(C)c1cc(Oc2c(Cl)cc(-n3nc(C#N)c(=O)[n-]c3=O)cc2Cl)n[nH]c1=O.[Ca+2] outcome_measure=Solubility numeric_value=2.5
molecule="CC(C)c1cc(Oc2c(Cl)cc(-n3nc(C#N)c(=O)[nH]c3=O)cc2Cl)n[nH]c1=O.O.O [Free form dihydrate]" outcome_measure=Solubility numeric_value=6.7

* * *

Experiment: Kinetic and thermodynamic solubility of Compound A and the glutaric acid co-crystal in FaSSGF, FaSSIF and water at 37° C. (HPLC)
Type: physicochemical
Conditions: pH 1.67, fassgf or other biorelevant, thermodynamic from solid; FaSSGF, 37° C., Equilibrium-24 hours
Outcome measure: solubility at 24 h

compound="CC(C)c1cc(Oc2c(Cl)cc(-n3nc(C#N)c(=O)[nH]c3=O)cc2Cl)n[nH]c1=O [Form A]" outcome_measure="solubility at 24 h" result="1.1 µg/mL"

* * *

Assay: Kinetic and thermodynamic solubility of Compound A and the glutaric acid co-crystal in FaSSGF, FaSSIF and water at 37° C. (HPLC)
Type: physicochemical
Conditions: pH 6.57, thermodynamic from solid; Water, 37° C., Equilibrium-24 hours
Outcome measure: solubility at 24 h

compound="CC(C)c1cc(Oc2c(Cl)cc(-n3nc(C#N)c(=O)[nH]c3=O)cc2Cl)n[nH]c1=O [Form A]" result="193 µg/mL"

* * *

# reported Solubility; entries follow
Test: Solubility of salts of Compound A in FaSSGF, FaSSIF and water at 37° C.
Details: FaSSIF, 37° C.
Outcome measure: Solubility (µg/mL)

compound=CC(C)c1cc(Oc2c(Cl)cc(-n3nc(C#N)c(=O)[n-]c3=O)cc2Cl)n[nH]c1=O.[Na+] display_unit=µg/mL numeric_value=2500
compound="CC(C)c1cc(Oc2c(Cl)cc(-n3nc(C#N)c(=O)[nH]c3=O)cc2Cl)n[nH]c1=O.O.O [Free form dihydrate]" display_unit=µg/mL numeric_value=2900
compound="CC(C)c1cc(Oc2c(Cl)cc(-n3nc(C#N)c(=O)[nH]c3=O)cc2Cl)n[nH]c1=O [Free form Anhydrous]" display_unit=µg/mL numeric_value=4500
compound=CC(C)c1cc(Oc2c(Cl)cc(-n3nc(C#N)c(=O)[n-]c3=O)cc2Cl)n[nH]c1=O.[K+] display_unit=µg/mL numeric_value=2720
compound=CC(C)c1cc(Oc2c(Cl)cc(-n3nc(C#N)c(=O)[n-]c3=O)cc2Cl)n[nH]c1=O.CC(C)c1cc(Oc2c(Cl)cc(-n3nc(C#N)c(=O)[n-]c3=O)cc2Cl)n[nH]c1=O.[Ca+2] display_unit=µg/mL numeric_value=800

* * *

Test: Solubility of salts of Compound A in FaSSGF, FaSSIF and water at 37° C.
Conditions: Water, 37° C.
# reported Solubility; entries follow
Outcome measure: Solubility (mg/mL)

compound="CC(C)c1cc(Oc2c(Cl)cc(-n3nc(C#N)c(=O)[nH]c3=O)cc2Cl)n[nH]c1=O.O.O [Free form dihydrate]" outcome_measure=Solubility relation== numeric_value=0.1
compound="CC(C)c1cc(Oc2c(Cl)cc(-n3nc(C#N)c(=O)[nH]c3=O)cc2Cl)n[nH]c1=O [Free form Anhydrous]" outcome_measure=Solubility relation== numeric_value=0.2
compound=CC(C)c1cc(Oc2c(Cl)cc(-n3nc(C#N)c(=O)[n-]c3=O)cc2Cl)n[nH]c1=O.[Na+] outcome_measure=Solubility relation=> numeric_value=25
compound=CC(C)c1cc(Oc2c(Cl)cc(-n3nc(C#N)c(=O)[n-]c3=O)cc2Cl)n[nH]c1=O.CC(C)c1cc(Oc2c(Cl)cc(-n3nc(C#N)c(=O)[n-]c3=O)cc2Cl)n[nH]c1=O.[Ca+2] outcome_measure=Solubility relation== numeric_value=0.32
compound=CC(C)c1cc(Oc2c(Cl)cc(-n3nc(C#N)c(=O)[n-]c3=O)cc2Cl)n[nH]c1=O.[K+] outcome_measure=Solubility relation=> numeric_value=21.3

* * *

Assay: Kinetic and thermodynamic solubility of Compound A and the glutaric acid co-crystal in FaSSGF, FaSSIF and water at 37° C. (HPLC)
Format: physicochemical
Conditions: thermodynamic from solid; FaSSIF, 37° C., Kinetic-1 hour
Outcome measure: solubility at 1 h (µg/mL)

molecule="CC(C)c1cc(Oc2c(Cl)cc(-n3nc(C#N)c(=O)[nH]c3=O)cc2Cl)n[nH]c1=O [Form A]" outcome_measure="solubility at 1 h" numeric_value=490
